system: D54 ERlucT glycosylation luciferase reporter, luminescence, 24 h; experiment: N-linked glycosylation inhibitors, luciferase reporter, dose response, D54 ERlucT cells, luminescence, cherry-picks (AID 624491);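 also: signal gain reflects blocked N-linked glycosylation of a luciferase reporter; actives raise luciferase signal so AC26 marks activators of the reporter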
Kindly state AC26 for each of the entries shown.

Output measured AC26 for this item: CN(/N=C/c1ccc(N(C)C)cc1)C1=NS(=O)(=O)c2ccccc21
1610 nM

Answer with the recorded AC26 of C#CCCOC(=O)N1C2=NC(C(=O)OC)=C(C(=O)OC)[C@@H]3N(C)c4ccccc4[C@]23C[C@H]1C(=O)OC only.
479 nM

Give the value of AC26 reported for the following: COC(=O)c1cc(=O)n(-c2ccc(F)cc2)c(=Nc2ccc(F)cc2)s1
4230 nM

Output AC26 of CN(C)S(=O)(=O)c1ccc(N2CCCC2)c(C(=O)Nc2cccc(F)c2)c1
931 nM

Retrieve AC26 measured for CN(C)S(=O)(=O)c1ccc(N2CCCC2)c(C(=O)Nc2nc3ccc(F)cc3s2)c1 and print it.
1540 nM

----------
Consider the following compounds; for each one, report its AC26.
test system: D54 ERlucT glycosylation luciferase reporter, luminescence, 24 h; assay: N-linked glycosylation inhibitors, luciferase reporter, dose response, D54 ERlucT cells, luminescence, cherry-picks (AID 624491);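 also: signal gain reflects blocked N-linked glycosylation of a luciferase reporter; actives raise luciferase signal so AC26 marks activators of the reporter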

Fill in AC26 for Cn1c(=O)n(C)c2cc(NS(=O)(=O)c3ccc4c(c3)CCCC4)ccc21 tested with D54 ERlucT glycosylation luciferase reporter, luminescence, 24 h.
2670 nM

Recall the reported AC26 of CCOC(=O)C1CCN(c2c(N3CCN(Cc4ccccc4)CC3)c(=O)c2=O)CC1 on D54 ERlucT glycosylation luciferase reporter, luminescence, 24 h and write it down.
1810 nM

Give reported AC26 for COc1ccc(-c2cnc3c(NC=O)cc(-c4ccccc4)cn23)cc1OC (D54 ERlucT glycosylation luciferase reporter, luminescence, 24 h)
97.1 nM

With D54 ERlucT glycosylation luciferase reporter, luminescence, 24 h as the test system, provide measured AC26 for this compound: COc1ccc(-c2ccnc(-c3ccncc3)n2)cc1
1390 nM

For D54 ERlucT glycosylation luciferase reporter, luminescence, 24 h, give the measured AC26 of the entry CCOc1ccc(Nc2nc(N(C)c3ccccc3)nc(N)c2[N+](=O)[O-])cc1
92.1 nM

Report value only: AC26, D54 ERlucT glycosylation luciferase reporter, luminescence, 24 h, CC(=O)Nc1sc(NC(=O)c2ccccc2)nc1-c1cccs1
3450 nM

Supply AC26 measured with D54 ERlucT glycosylation luciferase reporter, luminescence, 24 h for O=C(NCCCN1CCOCC1)c1cc(-c2ccccc2)on1 .
5780 nM

Supply AC26 measured with D54 ERlucT glycosylation luciferase reporter, luminescence, 24 h for Cn1c(=O)cc(OCCCC(=O)Nc2ccc3c(c2)OCCO3)c2ccccc21 .
3060 nM

Provide AC26, recorded with D54 ERlucT glycosylation luciferase reporter, luminescence, 24 h, of Nc1nc(CN2CCN(Cc3ccccc3)CC2)nc(Nc2ccc3c(c2)OCCO3)n1
699 nM

# assay system D54 ERlucT glycosylation luciferase reporter, luminescence, 24 h: give AC26 of COc1cccc(-c2cnc3c(NC(C)=O)cc(-c4cc(F)ccc4OC)cn23)c1
1600 nM

Check D54 ERlucT glycosylation luciferase reporter, luminescence, 24 h data and give AC26 for COCCNc1nc(NCc2ccccc2)nc2ccsc12 .
136 nM
